In this section, each of the compounds is paired with its reported Activity.
Tested on: HeLa
Assay: Cytotoxicity against human HeLa MKYP cells assessed as cell death at 25 uM treated with FCCP/oliogmycin and measured DAPI staining method assay relative to control
Assay type: toxicity, cell-based
Quick note: give the figure in %, leave out the unit.

Past entries and their recorded results:
>>> reading("C[C@@H]1CCc2ccccc2[C@H]1Nc1ncnc2[nH]c(C(F)(F)F)cc12")
23.8
>>> reading("OC1CCc2ccccc2C1Nc1ncnc2[nH]c(C(F)(F)F)cc12 (stereo not given)")
12.8
>>> reading("Oc1ccc2c(c1)CCC[C@H]2Nc1ncnc2[nH]c(C(F)(F)F)cc12")
11
>>> reading("CN1CC[C@H](Nc2ncnc3[nH]c(C(F)(F)F)cc23)c2ccccc21")
16
>>> reading("C[C@H]1CCc2ccccc2[C@H]1Nc1ncnc2[nH]c(C(F)(F)F)cc12")
12

Q: Please indicate Activity recorded for CO[C@@H]1COc2ccccc2[C@@H]1Nc1ncnc2[nH]c(C(F)(F)F)cc12
Ans: 12.11

Q: Please indicate Activity recorded for CC(=O)N1CCC(Nc2ncnc3[nH]c(C(F)(F)F)cc23)c2ccccc21 (stereo not given)
Ans: 6.92

Q: Please indicate Activity recorded for N#Cc1cccc2c1CCCC2Nc1ncnc2[nH]c(C(F)(F)F)cc12 (stereo not given)
Ans: 71.2

Q: Please indicate Activity recorded for O[C@H]1Cc2ccccc2[C@@H]1Nc1ncnc2[nH]c(C(F)(F)F)cc12
Ans: 14.4

Q: Please indicate Activity recorded for c1ccc2c(c1)OCC[C@H]2Nc1ncnc2[nH]c(C3CC3)cc12
Ans: 17.3

###

Experiment: Brain concentration in mouse at 10 mg/kg, po measured at 0.5 hrs
Type: ADME, organism-based
Conditions: read-out: Drug uptake
measure name: concentration at 0.5 h (ng/g)
Quick note: give the figure in ng/g, leave out the unit.

Q: Please indicate concentration at 0.5 h recorded for FC(F)(F)c1cc2c(NC3CCCc4ccccc43)ncnc2[nH]1 (stereo in doubt)
Ans: 526

###

Tested on: HeLa
Experiment: Cytotoxicity against human HeLa MKYP cells assessed as percentage of DAPI-positive cells at 50 uM and measured by DAPI staining method
Type: toxicity, cell-based
measure name: Activity (%)
Quick note: give the figure in %, leave out the unit.

>>> reading("OC[C@@H](Nc1ncnc2[nH]cnc12)c1ccccc1")
8.9
>>> reading("c1ccc2c(c1)OCC[C@H]2Nc1ncnc2[nH]c(C3CC3)cc12")
17.3
>>> reading("C[C@@H](Nc1ncnc2[nH]c(C3CC3)nc12)c1ccccc1")
12.3
>>> reading("FC(F)(F)c1cc2c(NCc3cncnc3)ncnc2[nH]1")
1.7
>>> reading("FC(F)(F)c1cc2c(NC3CCCc4ccccc43)ncnc2[nH]1 (stereo in doubt)")
2.1
>>> reading("N#Cc1cccc2c1CCCC2Nc1ncnc2[nH]c(C(F)(F)F)cc12 (stereo unspecified)")
71.2
>>> reading("C[C@@H](Nc1ncnc2[nH]c(C(F)(F)F)cc12)c1ccccc1")
63.7
>>> reading("CCCCNc1ncnc2[nH]c(-c3ccccc3)cc12")
90
>>> reading("FC(F)(F)c1cc2c(N[C@@H]3CCOc4ccccc43)ncnc2[nH]1")
21.1
>>> reading("FC(F)(F)c1cc2c(NCc3ccccc3)ncnc2[nH]1")
50.4

Here is another molecule to look at.
Q: Please indicate Activity recorded for FC(F)(F)c1cc2c(N[C@H]3CCOc4ccccc43)ncnc2[nH]1
Ans: 37.7

###

Test system: HeLa
Test: Cytotoxicity against human HeLa MKYP cells assessed as cell death at 25 uM and measured DAPI staining method assay relative to control
Type: toxicity, cell-based
In this section, each of the molecules is paired with its reported Activity.
Quick note: give the figure in %, leave out the unit.

Past entries and their recorded results:
>>> reading("C[C@@H]1CCc2ccccc2[C@H]1Nc1ncnc2[nH]c(C(F)(F)F)cc12")
17.9
>>> reading("C[C@H]1CCc2ccccc2[C@@H]1Nc1ncnc2[nH]c(C(F)(F)F)cc12")
3.79
>>> reading("O[C@H]1Cc2ccccc2[C@H]1Nc1ncnc2[nH]c(C(F)(F)F)cc12")
2.75
>>> reading("O[C@@H]1Cc2ccccc2[C@H]1Nc1ncnc2[nH]c(C(F)(F)F)cc12")
2.35
>>> reading("CC(=O)N1CCC(Nc2ncnc3[nH]c(C(F)(F)F)cc23)c2ccccc21 (configuration not stated)")
2.69

Q: Please indicate Activity recorded for OC[C@@H]1CCc2ccccc2[C@H]1Nc1ncnc2[nH]c(C(F)(F)F)cc12
Ans: 27

Q: Please indicate Activity recorded for OC1CCc2ccccc2C1Nc1ncnc2[nH]c(C(F)(F)F)cc12 (configuration not stated)
Ans: 3.79

###

Tested on: HeLa
Test: Cytotoxicity against human HeLa MKYP cells assessed as percentage of DAPI-positive cells at 50 uM and measured by DAPI staining method
Format: toxicity, cell-based
measure name: Activity

Past entries and their recorded results:
>>> reading("CC[C@@H]1CCc2ccccc2[C@@H]1Nc1ncnc2[nH]c(C(F)(F)F)cc12")
"8.7%"
>>> reading("CO[C@@H]1COc2ccccc2[C@H]1Nc1ncnc2[nH]c(C(F)(F)F)cc12")
"10.6%"

Q: Please indicate Activity recorded for COc1ccccc1CNc1ncnc2nc[nH]c12
Ans: 12.4%

###

Test system: HeLa
Assay: Cytotoxicity against human HeLa MKYP cells assessed as percentage of DAPI-positive cells at 50 uM and measured by DAPI staining method
Assay type: toxicity, cell-based
measure name: Activity (%)
Quick note: give the figure in %, leave out the unit.

Past entries and their recorded results:
>>> reading("CO[C@H]1COc2ccccc2[C@H]1Nc1ncnc2[nH]c(C(F)(F)F)cc12")
3.6
>>> reading("FC(F)(F)c1cc2c(NCc3ccncn3)ncnc2[nH]1")
1.5

Q: Please indicate Activity recorded for CCCCNc1ncnc2[nH]c(C3CCC3)nc12
Ans: 6.1

Q: Please indicate Activity recorded for O[C@H]1Cc2ccccc2[C@H]1Nc1ncnc2[nH]c(C(F)(F)F)cc12
Ans: 21.2

Q: Please indicate Activity recorded for FC(F)(F)c1cc2c(NC3CCCc4ccccc43)ncnc2[nH]1 (stereo in doubt; 16)
Ans: 4.5

###

System: HeLa
Experiment: Cytotoxicity against human HeLa MKYP cells assessed as cell death at 25 uM and measured DAPI staining method assay relative to control
Type: toxicity, cell-based
measure name: Activity (%)
Quick note: give the figure in %, leave out the unit.

Past entries and their recorded results:
>>> reading("CO[C@H]1COc2ccccc2[C@@H]1Nc1ncnc2[nH]c(C(F)(F)F)cc12")
3.66
>>> reading("CN(C)[C@H]1CCc2ccccc2[C@@H]1Nc1ncnc2[nH]c(C(F)(F)F)cc12")
4.33

Here is another compound to look at.
Q: Please indicate Activity recorded for FC(F)(F)c1cc2c(NC3CCCc4ccccc43)ncnc2[nH]1 (stereo in doubt)
Ans: 2.59

###

In this section, each of the compounds is paired with its reported Activity.
Tested on: HeLa
Experiment: Cytotoxicity against human HeLa MKYP cells assessed as percentage of DAPI-positive cells at 50 uM and measured by DAPI staining method
Assay type: toxicity, cell-based
Quick note: give the figure in %, leave out the unit.

Past entries and their recorded results:
>>> reading("C[C@@H](Nc1ncnc2[nH]cnc12)c1ccccc1")
10.1
>>> reading("FC(F)(F)c1cc2c(NC3CCc4ccccc43)ncnc2[nH]1 (stereo in doubt; 18)")
1.7
>>> reading("COc1ccc2c(c1)[C@@H](Nc1ncnc3[nH]c(C(F)(F)F)cc13)CCC2")
3.2

Here is another compound to look at.
Q: Please indicate Activity recorded for CO[C@@H]1CCc2ccccc2[C@H]1Nc1ncnc2[nH]c(C(F)(F)F)cc12
Ans: 18.4

###

In this section, each of the compounds is paired with its reported Activity.
Test system: HeLa
Assay: Cytotoxicity against human HeLa MKYP cells assessed as percentage of DAPI-positive cells at 50 uM and measured by DAPI staining method
Type: toxicity, cell-based
Quick note: give the figure in %, leave out the unit.

Past entries and their recorded results:
>>> reading("FC(F)(F)c1cc2c(NCc3cccc(Cl)c3)ncnc2[nH]1")
20.3
>>> reading("CO[C@H]1CCc2ccccc2[C@@H]1Nc1ncnc2[nH]c(C(F)(F)F)cc12")
7.7

Q: Please indicate Activity recorded for CCCCNc1ncnc2[nH]c(CC(F)(F)F)cc12
Ans: 24.8

Q: Please indicate Activity recorded for c1ccc(C2(Nc3ncnc4[nH]cnc34)CC2)cc1
Ans: 13.4

Q: Please indicate Activity recorded for C[C@H](Nc1ncnc2[nH]c(C(F)(F)F)cc12)c1ccccc1
Ans: 90.8
